FYI, the data here is from patent US5424328A.

Assignment: determine reported IC50 for the given compounds.
# target-or-test-system: serotonin 5-HT3 receptors (Rattus norvegicus)
# Sequence (P35563 24-483): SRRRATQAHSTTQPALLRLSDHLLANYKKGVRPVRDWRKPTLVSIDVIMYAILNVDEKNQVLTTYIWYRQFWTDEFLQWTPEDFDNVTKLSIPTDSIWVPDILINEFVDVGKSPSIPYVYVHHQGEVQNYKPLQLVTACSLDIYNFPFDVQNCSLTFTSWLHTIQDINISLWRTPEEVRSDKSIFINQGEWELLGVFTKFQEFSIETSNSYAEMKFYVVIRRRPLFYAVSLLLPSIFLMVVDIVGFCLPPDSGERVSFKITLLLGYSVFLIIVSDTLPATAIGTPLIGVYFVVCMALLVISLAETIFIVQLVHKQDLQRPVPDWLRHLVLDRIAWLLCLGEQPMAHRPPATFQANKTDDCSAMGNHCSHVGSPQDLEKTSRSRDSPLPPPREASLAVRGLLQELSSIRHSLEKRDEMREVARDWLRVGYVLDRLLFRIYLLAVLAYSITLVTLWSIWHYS
Your answer is read as nM, so omit the unit and give the number.

Summary for this compound, Cc1[nH]cnc1CN1CCN(c2ccccc2)C1=O : IC50 is 14

Summary for this compound, Cc1[nH]cnc1CN1CCN(c2cccc(C#N)c2)C1=O : IC50 is 11
